The values you see were collected from patent US20200030278A1.

Experimental details: Protein binding in mouse plasma (dialysis)
Assay type: in vitro ADME
Conditions used: intended 100 nM, actual 112 nM, read-out: % Bound (converted)
Readout kind: fraction unbound at 4 h, 100 nM
Enter the number alone.

Given item CO[C@@H]1[C@H](OC(=O)N2CC(CCN3CCOCC3)C2)CC[C@]2(CO2)[C@H]1[C@@]1(C)O[C@@H]1CC=C(C)C , the value recorded as its fraction unbound at 4 h, 100 nM is 0.333

###

Experimental details: Toxicology study in the rat, s.c. Q3D for 28 days
Format: in vivo, Sprague Dawley rats
Conditions used: female, Sprague Dawley, rat, in vivo, sc, 6 mg/kg, Day 1, female rats, NOAEL 6 mg/kg; read-out: AUC0-t at NOAEL
Readout kind: AUC(0-t) (ng·h/mL)
Quick reminder: number only, in ng·h/mL, skip the unit.

Lab note: CO[C@@H]1[C@H](OC(=O)N2CC(CCN3CCOCC3)C2)CC[C@]2(CO2)[C@H]1[C@@]1(C)O[C@@H]1CC=C(C)C [Compound A] gave AUC(0-t) of 262
